- Tested on: Sagittaria pygmaea, L.
- Method summary: Preemergence weed control under flooded paddy conditions, SAGPY (Arrowhead (Pygmaea)); note: meaning of each grade not given here
- Type: in vivo
- Experimental setup: Rate 0.2500 kg/ha; preemergence weeds, flooded paddy; rated three to four weeks after treatment
Reported values of herbicidal effect rating, SAGPY for individual entries
Please respond with just the number, no unit label.

Examples from the recorded data:
Compound: CC(Oc1ccccc1-c1nsc2ccc(-n3c(=O)cc(C(F)(F)F)n(C)c3=O)cc12)C(=O)NS(C)(=O)=O (centres unmarked)
herbicidal effect rating, SAGPY: 4.0
--
Compound: CN(C)C(=O)c1nsc2ccc(-n3c(=O)cc(C(F)(F)F)n(C)c3=O)cc12
herbicidal effect rating, SAGPY: 4.0
--
Compound: CC(O)c1nsc2ccc(-n3c(=O)cc(C(F)(F)F)n(C)c3=O)cc12 (centres unmarked)
herbicidal effect rating, SAGPY: 9.0
--
Compound: CC(=O)c1nsc2ccc(-n3c(=O)cc(C(F)(F)F)n(C)c3=O)cc12
herbicidal effect rating, SAGPY: 9.0
--
Compound: Cc1ccc(OCC(=O)NS(=O)(=O)CCl)c(-c2nsc3ccc(-n4c(=O)cc(C(F)(F)F)n(C)c4=O)cc23)c1
herbicidal effect rating, SAGPY: 3.0

Input: Write down measured herbicidal effect rating, SAGPY (Sagittaria pygmaea, L.) for this compound. Cn1c(C(F)(F)F)cc(=O)n(-c2ccc3snc(C(=O)NS(C)(=O)=O)c3c2)c1=O
Output: 9.0

Input: Write down measured herbicidal effect rating, SAGPY (Sagittaria pygmaea, L.) for this compound. Cn1c(C(F)(F)F)cc(=O)n(-c2ccc3snc(C(=O)NS(=O)(=O)Cc4ccccc4)c3c2)c1=O
Output: 4.5

Input: Write down measured herbicidal effect rating, SAGPY (Sagittaria pygmaea, L.) for this compound. Cn1c(C(F)(F)F)cc(=O)n(-c2ccc3snc(C(N)=O)c3c2)c1=O
Output: 9.0

Origin of the recorded values: patent EP0908457B1
